# Tested on: MOLT-4 leukemia
# protocol-details: NCI-60 one-dose screen, 48 h
# test-conditions: 10 µM unless noted
About 83,000 compounds went through this panel and 20% of them were active in at least one assay; those are over-represented in the sample as a whole. Calls of active or inactive are those of the source. Rule for the calls: active = growth percent below 10; inactive = the rest.
Possible outcomes: active, inactive

compound	label-class
COc1ccc(-c2cc(-c3ccc(OC)c(OC)c3)nc(SCCCCCC(=O)NO)n2)cc1	inactive
CCOC(=O)c1nn(C2CCCCO2)c2ccc(NS(=O)(=O)c3ccc(C)cc3)cc12 (configuration not stated)	inactive
O=C1CC(C(F)(F)F)Cc2nc3ccc(Br)cc3cc21 (configuration not stated)	inactive
COc1ccc(NC(=O)Nc2ccc(-c3cccnc3)cc2N2CCC(CO)CC2)cc1	inactive
O=C(OCc1ccc2c(Cl)cc(Cl)c(O)c2n1)N1CCNCC1	inactive
Cc1ccc(Oc2c(/C=N/NC(=O)Cn3c(=O)sc4ccccc43)c(C)nn2-c2ccccc2)cc1	active
COc1ccc2c(c1)C(C)Cc1c(Cl)ncnc1N2C (configuration not stated)	active
Cc1ccc(NC(=S)/N=c2/n(-c3ccccc3)nc3n2CCN3C2=NCCN2)cc1	inactive
CC(C)[C@H]1COC(=O)N1[C@@H]1C(=O)N([C@@H](CCC(=O)N2CCN(C3CCCC3)CC2)C(=O)N[C@@H]2CCCc3ccccc32)[C@@H]1/C=C/c1cccc(Cl)c1	inactive
CC(C)C1=NOC(=O)C1=Cc1cn(-c2cccnc2)nc1-c1ccccc1	inactive
CC1(C)CC[C@]2(C(N)=O)CC[C@]3(C)C(=CC[C@@H]4[C@@]5(C)C/C(=C/c6ccncc6)C(=O)C(C)(C)[C@@H]5CC[C@]43C)[C@@H]2C1	active
COc1ccc(-c2cc(-c3ccc(Cl)cc3)nc(SCCCCCCC(=O)NO)n2)cc1	active

----------
# Test system: SW-620 colon
# protocol-details: NCI-60 one-dose screen, 48 h
# test-conditions: 10 µM unless noted
This is part of a sample that, as a whole, favours compounds with a hit. Of some 83,000 tested, about 20% had one in any assay. The source made the active and inactive calls. Rule for the calls: active = growth percent below 10; inactive = the rest.
Outcomes: active, inactive

compound	label-class
C=C(C)[C@@H]1CC[C@]2(C)[C@H](C(=O)C=C3[C@@H]4C[C@](C)(C(=O)N5CCN(C)CC5)CC[C@]4(C)CC[C@]32C)[C@@]1(C)CCC#N	active
C=C(C)[C@@H]1CC[C@]2(C)[C@H](CC=C3[C@@H]4[C@@H](C)[C@H](C)CC[C@]4(C(N)=O)CC[C@]32C)[C@@]1(C)CCC#N	active
O=c1cc(-c2ccccc2)oc2c(O)c(O)ccc12	inactive
C=C(C)[C@@H]1CC[C@]2(COC(=O)c3ccccc3C(=O)O)CC[C@]3(C)[C@H](CC[C@@H]4[C@@]5(C)CC[C@H](OC(=O)c6ccccc6C(=O)O)C(C)(C)[C@@H]5CC[C@]43C)[C@@H]12	inactive
COc1cc(OC)c(/C=C/C(=O)c2c(N)cc(OC)cc2OC)c(OC)c1	inactive
Cc1cccc([N+](=O)[O-])c1I	inactive
COc1ccc2c(c1)C(C)Cc1c(ncnc1-n1cnc3ccccc31)N2C (stereo unspecified)	inactive
Nc1nc(N)c2c(n1)NC(c1ccc(F)cc1)C1CCc3ccccc3C1=N2 (stereo unspecified)	inactive
Cc1cccc(C[C@H](NC(=O)Nc2ccc(Cl)cc2F)C(=O)N[C@@H]2C(=O)N3C[C@H](OC(=O)CCN(C)C)C[C@H]3C(=O)N3CCCC[C@H]3C(=O)N[C@@H](C)C(=O)N3C[C@H](C)C[C@H]3C(=O)O[C@H]2C)c1	inactive
O=c1cc(-c2ccccc2)oc2cc(OCc3cn(Cc4ccc(F)cc4)nn3)cc(O)c12	inactive
NC(=O)c1c(NC(=O)COC(=O)Cc2ccccc2F)sc2c1CCC2	inactive

----------
# Test system: DU-145 prostate
# protocol-details: NCI-60 one-dose screen, 48 h
# test-conditions: 10 µM unless noted
This is part of a sample that, as a whole, favours compounds with a hit. Of some 83,000 tested, about 20% had one in any assay. Activity calls are given as the source filed them. The calls were made as follows: active = growth percent below 10; inactive = the rest.
Labels: yes (1) for active, no (0) for inactive

compound	label-class
COc1ccc2c(c1)C(C)Cc1c(Cl)ncnc1N2C (stereo not given)	no (0)
CC1(C)CC[C@]23CC[C@]4(C)[C@H](CC[C@@H]5[C@@]6(C)C/C(=C/c7cccnc7)C(=O)C(C)(C)[C@@H]6CC[C@]54C)[C@H]2[C@H]1OC3=O	no (0)
Cc1ccccc1-n1nnc(C(=O)Nc2nc3ccc(F)cc3s2)c1C	no (0)
O=C1/C(=C\c2cccn2Cc2ccccc2)c2ccccc2N1c1c(Cl)cccc1Cl	no (0)
O=C1CC(c2ccccc2)Cc2nc3ccc(Br)cc3cc21 (stereo not given)	yes (1)
COc1ncc(-c2ccc3nc(N)n(-c4ccccc4C(F)(F)F)c(=O)c3c2)cc1S(=O)(=O)Nc1ccc(F)cc1F	no (0)
COc1cc2c(c(Br)c1N)-c1cc(Br)c(N)cc1C2=O	no (0)
C=CCCCCCCCCC(=O)OC(C)C	no (0)
CC(C)OC(=O)Nc1cc(F)c(F)cc1F	no (0)
O=C(O)CC1CCCCC1c1ccccc1 (stereo not given)	no (0)

----------
# Test system: SF-295 CNS
# protocol-details: NCI-60 one-dose screen, 48 h
# test-conditions: 10 µM unless noted
# Protocol: Cells are grown in 96 well plates and exposed to the test compound for 48 hours. Compounds are tested at a single concentration, which is 10^-5 M for most compounds. The reported endpoint is percent growth (GI% or GIPRCNT), where numbers from 0 - 100% represent growth inhibition, and numbers from -100% - 0 represent cell death. For example, a value of 40 represents 60% growth inhibition. A value of 0 means no net growth occurred over the course of the experiment. […]
Compounds without any hit were thinned out: in the full panel of roughly 83,000, 20% have a hit. Calls of active or inactive are those of the source. Rule for the calls: active = growth percent below 10; inactive = the rest.
Classes used: class 1 (active), class 0 (inactive)

compound-smiles	label-class
COc1cc2c(O)n(CCCN3CCOCC3)c3c4cnc5cccc(c(=O)c3c2cc1OC)c54	class 0
c1cc2ccc1CNCCN1CCNCc3ccc(cc3)Oc3ccc(cc3)CNCCN(CCNCc3ccc(cc3)O2)CCNCc2ccc(cc2)Oc2ccc(cc2)CNCC1	class 1
O=C(NCc1ccc(Cn2c(=O)sn(-c3ccccc3)c2=O)cc1)OCc1ccc2c(Br)cc(Br)c(O)c2n1	class 1

----------
# Test system: SN12C renal
# protocol-details: NCI-60 one-dose screen, 48 h (100 = growth as untreated, 0 = no growth, -100 = all killed)
# test-conditions: 10 µM unless noted
About 83,000 compounds went through this panel and 20% of them were active in at least one assay; those are over-represented in the sample as a whole.
property: growth (%)

compound-smiles	property	numeric-readout
COc1ccc(NC(=O)Nc2ccc(-c3cccnc3)cc2N2CCC(CO)CC2)cc1	growth	70.9
CC(C)(C)c1cc(C(=O)Nc2cc3ccccc3cc2C(=O)NCCN)cc(C(C)(C)C)c1	growth	-64.8
CCCC[C@@H](C=O)NC(=O)[C@H](CC(C)C)NC(=O)[C@H](CC(C)C)NC(=O)OCc1ccccc1	growth	2.11
COc1ccc(C(=O)CCC(=O)O)cc1	growth	89

----------
# Tested on: SK-MEL-28 melanoma
# protocol-details: NCI-60 one-dose screen, 48 h
# test-conditions: 10 µM unless noted
The panel holds about 83,000 compounds, 20% with a hit somewhere; the sample as a whole holds those more often. Activity calls are given as the source filed them. How the source made its calls: active means growth percent below 10; inactive means the rest.
Outcome codes: t = active, f = inactive

compound-smiles	label-class
Cc1ccc2c(c1)/C(=N\N=C/c1cn(C(C)C)c3ccccc13)C(=O)N2	f
COc1c(C(C)=O)c(OCCCCOc2c(C(C)=O)c(OC)c3ccoc3c2OC)c(OC)c2occc12	f
C[C@H]1[C@H](C)CC[C@]2(C(=O)O)CC[C@]3(C)C(=CC[C@@H]4[C@@]5(C)C/C(=C/c6ccco6)C(=O)C(C)(C)[C@@H]5CC[C@]43C)[C@H]12	t
O=C(Nc1ccc(Oc2ccc(F)cc2)c(Cl)c1)c1cccnn1	f
C#CCNC(=O)CC[C@@H](C)[C@H]1CC[C@H]2[C@@H]3CC[C@@H]4CC(=O)CC[C@]4(C)[C@H]3CC[C@]12C	t
O=C(Nc1ccc(C(=O)/C=C/c2ccc(N3CCOCC3)cc2)cc1)Nc1ccc([N+](=O)[O-])cc1	f
C=C(C)[C@@H]1CC[C@]2(C(=O)NCCCN)CC[C@]3(C)[C@H](CC[C@@H]4[C@@]5(C)CC[C@H](O)C(C)(C)[C@@H]5CC[C@]43C)[C@@H]12	t

----------
# System: SK-MEL-5 melanoma
# protocol-details: NCI-60 one-dose screen, 48 h
# test-conditions: 10 µM unless noted
# Description: Growth inhibition of the SK-MEL-5 human tumor cell line is measured as a screen for anti-cancer activity. Cells are grown in 96 well plates and exposed to the test compound for 48 hours. Compounds are tested at a single concentration, which is 10^-5 M for most compounds. The reported endpoint is percent growth (GI% or GIPRCNT), where numbers from 0 - 100% represent growth inhibition, and numbers from -100% - 0 represent cell death. For example, a value of 40 represents 60% growth inhibition. […]
The panel holds about 83,000 compounds, 20% with a hit somewhere; the sample as a whole holds those more often. Calls of active or inactive are those of the source. The calls were made as follows: active = growth percent below 10; inactive = the rest.
Outcomes: true (1) for active, false (0) for inactive

compound	label-class
CCOC(=O)CCC[P+](c1ccccc1)(c1ccccc1)c1ccccc1	false (0)
CC1(C)C(=NO)C(C)(C)C1=NO	false (0)
N#Cc1ccc(-c2ccc(COc3ccc(CC4SC(=O)NC4=O)cc3)cc2)cc1 (stereo not given)	true (1)
C[n+]1c2ccccc2nc2c(N)cc(N)cc21	false (0)
CC1(C)CC[C@]2(C(N)=O)CC[C@]3(C)C(=CC[C@@H]4[C@@]5(C)C/C(=C/c6cccnc6)C(=O)C(C)(C)[C@@H]5CC[C@]43C)[C@@H]2C1	true (1)
CCOC(=O)C(=Cc1ccccc1[N+](=O)[O-])C(=O)OCC	false (0)
O=C(NNc1ccc(-c2ccccc2)nn1)c1ccccc1	false (0)
COc1ccc(C2NC(=O)C(C#N)c3c2sc2c(F)cccc32)cc1 (stereo not given)	false (0)
COc1cc(C)cc2oc3oc(=N)c(C(=O)c4ccccc4)cc3c(=O)c12	false (0)
Cc1cc(C)c(-c2cc(O)c(-c3c(C)cc(C)cc3C)cc2O)c(C)c1	false (0)
CCN(CC)c1ccc(/C=C/c2ccc3cc(C)ccc3[n+]2CC)cc1	true (1)
Cc1cccc(/C=C2\N=C(c3ccccc3)N(c3ccc(S(N)(=O)=O)cc3)C2=O)c1	false (0)
O=C(O)c1cccc(CN2CCN(c3cc4c(cc3F)c(=O)c(C(=O)O)cn4C3CC3)CC2)c1O	false (0)
NS(=O)(=O)c1ccc(CCN2C(=O)/C(=C\c3ccccc3)C=C2c2ccc(Cl)cc2)cc1	false (0)
CS(=O)(=O)c1cccnn1	false (0)
Cc1ccc(N)c(O)c1	false (0)
Cn1cc(-c2noc(-c3cn(C)c4ncc(F)cc34)n2)c2cc(Cl)ccc21	false (0)
O=S(=O)(NCCCNc1nccc(-c2c(-c3cccc(F)c3)nc3occn23)n1)c1cccc2ccccc12	false (0)
COc1ccc(C(=O)CCC(=O)O)cc1	false (0)
C=C(C)[C@@H]1CC[C@]2(C(N)=O)CC[C@]3(C)[C@H](CC[C@@H]4[C@@]5(C)CC[C@H](O)C(C)(C)[C@@H]5CC[C@]43C)[C@@H]12	true (1)
CC(C)=CCC[C@](C)(O)[C@H]1CC[C@]2(C)[C@@H]1CC[C@@H]1[C@@]3(C)CC[C@H](OC(=O)CCC(=O)O)C(C)(C)[C@@H]3CC[C@]12C	true (1)
CC(C)CCSc1nc(N)nc2nc[nH]c12	false (0)
COc1ccc2nc3c(cc2c1)C(=O)CC(c1ccccc1)C3 (stereo not given)	false (0)
CC(C)CCNCC(C)(C)O	false (0)
C=C(CN=[N+]=[N-])[C@@H]1CC[C@]2(C)[C@H](CC[C@@H]3[C@H]4[C@H]5OC(=O)[C@@]4(CCC5(C)C)CC[C@]32C)[C@@]1(C)CCC#N	false (0)
Cc1ccc2c(c1)C(C)Cc1c(Cl)ncnc1N2C (stereo not given)	true (1)
C#CCC(C(=O)OCC)C(=O)OCC	false (0)
O=C(NCCCCCCCNC(=O)OCc1ccc2c(Cl)cc(Cl)c(O)c2n1)OCc1ccc2c(Cl)cc(Cl)c(O)c2n1	true (1)
CN(C)CCOc1ccc(/C(=C(/CCCl)c2ccccc2)c2ccccc2)cc1	true (1)
Oc1ccc(N=Nc2nccs2)c(O)c1	false (0)
